Data provenance is PubChem BioAssay (NCI).

- Test system: CCRF-CEM leukemia
- method: NCI-60 one-dose screen, 48 h
- conditions: 10 µM unless noted
- Protocol: Growth inhibition of the CCRF-CEM human tumor cell line is measured as a screen for anti-cancer activity. Cells are grown in 96 well plates and exposed to the test compound for 48 hours. Compounds are tested at a single concentration, which is 10^-5 M for most compounds. The reported endpoint is percent growth (GI% or GIPRCNT), where numbers from 0 - 100% represent growth inhibition, and numbers from -100% - 0 represent cell death. For example, a value of 40 represents 60% growth inhibition. […]
Compounds without any hit were thinned out: in the full panel of roughly 83,000, 20% have a hit. Active and inactive are the calls of the source. The calls were made as follows: active = growth percent below 10; inactive = the rest.
Respond only with the outcome that fits, drawn from active, inactive

Solved entries:
O=C(O)c1cccc([N+](=O)[O-])c1/C=C/c1ccccc1; inactive
CN(C)C/C=C/C(=O)Nc1cc2c(Nc3cccc(Cl)c3F)ncnc2cc1OCCOC(F)F; inactive
CC(=O)N1Cc2ccccc2C(C)Cc2cc(Cl)ccc21 (stereo not given); inactive
CC1CCc2c(sc(NC(=O)CSc3nnc4ccccn34)c2C(N)=O)C1 (stereo not given); inactive
O=S(=O)(NCCCNc1cc(-c2cn(-c3ccccc3)nc2-c2cccc(O)c2)ccn1)c1cccc(F)c1; inactive
NC(N)=NC(N)=Nc1ccccc1-c1ccccc1; inactive

Asked: # fetch the recorded call for "CC/C=C\C[C@H](O)C/C=C1/C(=O)C(Cl)=C[C@@H]1C/C=C\CCCC(=O)OC" here
Given back: active

Asked: Query: recorded result category for "Oc1ccc(N=Cc2ccccc2)cc1" in this test
Given back: active

Asked: How did this test come out for "O=S(=O)(NCCNc1cc(-c2cn(-c3ccccc3)nc2-c2ccccc2)ccn1)c1ccc(F)cc1" ?
Given back: inactive

Asked: Test call, this compound: "O=c1[nH]c2ccccc2cc1-c1nnc(Cc2ccccc2)o1"
Given back: inactive
